# Test system: SK-MEL-28 melanoma
# testName: NCI tumour cell line growth inhibition, 48 h; in the data active = GI50 below about 0.43 µM; inactive = the rest
Choose the fitting class; nothing outside True = active, False = inactive is accepted.

These recorded examples may help you get a feel for the data.
Exam item: I'd appreciate the recorded outcome for CCN(CC)CCOc1nc2ccc(OC)cc2c2c1-c1ccc(OC)cc1C2=O from this test.
Marked response: False

Exam item: I'd appreciate the recorded outcome for C=C1CC2(OC1=O)C(=O)N(CCCCCCCN1C(=O)C3(CC(=C)C(=O)O3)c3ccccc31)c1ccccc12 (stereo not drawn) from this test.
Marked response: False

Would you kindly look at the next entry?
Exam item: I'd appreciate the recorded outcome for COc1ccc2c(c1)/C(=C\c1c(C)nc3sc(C)cn13)C(=O)N2C from this test.
Marked response: False

* * *

# Test system: NCI-H226 lung
# testName: NCI tumour cell line growth inhibition, 48 h; in the data active = GI50 below about 0.43 µM; inactive = the rest
Choose the fitting class; nothing outside True for active, False for inactive is accepted.

Exam item: I'd appreciate the recorded outcome for O=C(CN1CCN(c2ncccn2)CC1)Nc1ccc(Cl)cc1C(=O)c1ccccc1Cl from this test.
Marked response: False

Continuing:
Exam item: I'd appreciate the recorded outcome for O=C1NCc2ccc3c(-c4cccc(Cl)c4)c[nH]c3c21 from this test.
Marked response: False

Exam item: I'd appreciate the recorded outcome for O=C(CCCCCCSc1nc(-c2ccccc2)cc(-c2ccc(Cl)cc2)n1)NO from this test.
Marked response: False

Exam item: I'd appreciate the recorded outcome for COc1ccc(-c2nc3sc(C)cn3c2/C=C/C(=O)c2cc(OC)c(OC)c(OC)c2)cc1 from this test.
Marked response: False

Exam item: I'd appreciate the recorded outcome for COc1cc(-c2nn(-c3ccc(NC(=O)c4ccc(Cl)c(Cl)c4)cc3)cc2-c2ccncc2)ccc1Cl from this test.
Marked response: False

Exam item: I'd appreciate the recorded outcome for COc1cc(O)c([C@@H]2C[C@H](CCc3ccc(O)cc3)O[C@H](c3ccc(O)cc3)C2)c(O)c1C(=O)/C=C/c1ccc(O)cc1 from this test.
Marked response: False

Exam item: I'd appreciate the recorded outcome for COc1cc2c3c(n(C)c(=O)c2cc1OC)-c1cc2c(cc1/C3=C\CCCCCN)OCO2 from this test.
Marked response: False

Exam item: I'd appreciate the recorded outcome for O=[N+]([O-])C1C(c2ccccc2)C12c1ccccc1-c1ccccc12 (centres undefined) from this test.
Marked response: False

Exam item: I'd appreciate the recorded outcome for COC(=O)N[C@H]1CCc2c(Br)c(OC)c(OC)c(OC)c2-c2ccc(SC)c(=O)cc21 from this test.
Marked response: True

* * *

What TGI was measured for each of the following?
# System: SF-268 CNS
# testName: NCI tumour cell line growth inhibition, 48 h
One number for each entry, in µM.

The examples below pair each entry with its known result.
In plain terms, O=[N+]([O-])c1cccc(-c2csc(N=Nc3c(O)[nH]c4ccccc34)n2)c1 has a documented TGI of 38.4

In plain terms, CC1=C(C(=O)Nc2c(C)cccc2C)C(c2ccc3c(c2)OCO3)C(C(=O)Nc2c(C)cccc2C)=C(C)N1 has a documented TGI of 48.5

In plain terms, COc1ccc2nc(N/N=C(\C)c3ccccn3)cc(C)c2c1 has a documented TGI of 1.46

In plain terms, Oc1ccc(/C=C\c2nnc(/C=C\c3ccc(O)c(O)c3)s2)cc1O has a documented TGI of 14.8

In plain terms, COc1cc2c(cc1C[N+](C)(C)CSc1ccccc1)-c1ccccc1CC2 has a documented TGI of 18.5

In plain terms, N#CC1=C2Sc3ccccc3N2[C@H](c2ccccc2)[C@H]2COC(=O)[C@@H]12 has a documented TGI of 74.1

In plain terms, CNC(=O)c1cc(OC2CCC(NC(=O)Nc3ccc(Cl)c(C(F)(F)F)c3)CC2)ccn1 (stereo unspecified) has a documented TGI of 52

In plain terms, O=[N+]([O-])c1ccc(C(c2c[nH]c3ccccc23)c2c[nH]c3ccccc23)cc1 has a documented TGI of 22.5

Then there is this compound:
In plain terms, CCOC(=O)C(=O)Nc1nc2c(s1)C(=O)c1ccccc1C2=O has a documented TGI of 27.3

* * *

# Test system: RXF-631 renal
# testName: NCI tumour cell line growth inhibition, 48 h
measuredEndpoint: TGI

Assay RXF-631 renal, sample CCOC(=O)[C@@]1(C)C=C2O[C@@H]3OC4(CCCCC4)O[C@@H]3C2=C2C(O)=CC=C(O)[C@]21C(=O)OC , TGI read: > 68 µM

Assay RXF-631 renal, sample CCCC/C=C1\CCC(CN2CCCCC2)C1=O (configuration not stated) , TGI read: > 65.2 µM

Assay RXF-631 renal, sample COc1cccc2cc(C)c(C(=O)c3ccccc3)nc12 , TGI read: > 100 µM

Assay RXF-631 renal, sample N#CCC(=O)Nc1cccc(C(F)(F)F)c1 , TGI read: > 100 µM

Assay RXF-631 renal, sample CC1OC(OCC2OC(Oc3c(-c4ccc(O)cc4)oc4cc(O)cc(O)c4c3=O)C(OC3OCC(O)(CO)C3O)C(O)C2O)C(O)C(O)C1O (configuration not stated) , TGI read: > 100 µM

Go through the list and state TGI for each entry.
1. O=C1C(=O)N(C(=O)c2ccc(Cl)c(Cl)c2)c2ccccc21
2. COc1ccc2[nH]c3c(c2c1)CCN(C)CC3

Marked response:
> 100 µM
> 100 µM

* * *

# Test system: MDA-N
# testName: NCI tumour cell line growth inhibition, 48 h
measuredEndpoint: TGI

The examples below pair each entry with its known result.
In plain terms, Cc1cnoc1NC1=CC(=O)C(=O)c2ccccc21 has a documented TGI of 3.01 µM

In plain terms, COc1ccc2c(c1)OC(c1cccnc1)C(c1ccccc1)C2=O (configuration not stated) has a documented TGI of > 100 µM

In plain terms, CN(C)c1ccc(/C=N/Nc2nc3ccccc3c(=O)n2-c2ccccc2)cc1 has a documented TGI of > 100 µM

In plain terms, Cn1c(=O)c2c(nc(NCCCCl)n2CC(=O)O)n(C)c1=O has a documented TGI of > 100 µM

In plain terms, CCN(CC)Cc1nc2sc3c(c2c(=O)n1-c1ccccc1)CCCC3 has a documented TGI of 58 µM

In plain terms, CN1CC2=C(OC(N)=C(C#N)C2c2cccs2)/C(=C/c2cccs2)C1 (configuration not stated) has a documented TGI of > 47.3 µM

In plain terms, OC(C1CCC=NN1C(O)(C(F)(F)F)C(F)(F)F)(C(F)(F)F)C(F)(F)F (configuration not stated) has a documented TGI of > 10 µM

In plain terms, CCCC/C=C1\CCC(CN2CCCCC2)C1=O (configuration not stated) has a documented TGI of > 100 µM

Go through the list and state TGI for each entry.
1. CC(=O)n1c(COS(C)(=O)=O)nc2ccccc21
2. C=CC(=O)N1C/C(=C\c2ccc(N(C)C)cc2)C(=O)/C(=C/c2ccc(N(C)C)cc2)C1
3. CC(=O)c1ccc(N=Nc2ccc3nonc3c2N)cc1
4. CC(C)(CN)CN

Marked response:
1. > 100 µM
2. 78.7 µM
3. > 100 µM
4. > 100 µM

* * *

# Test system: TK-10 renal
# testName: NCI tumour cell line growth inhibition, 48 h; in the data active = GI50 below about 0.43 µM; inactive = the rest
Choose the fitting class; nothing outside Yes for active, No for inactive is accepted.

These recorded examples may help you get a feel for the data.
Exam item: I'd appreciate the recorded outcome for COc1ccc(-c2nc3sc(C)cn3c2/C=C/C(=O)c2cc(OC)c(OC)c(OC)c2)cc1 from this test.
Marked response: No

Exam item: I'd appreciate the recorded outcome for O=C(CCCCCCSc1nc(-c2ccccc2)cc(-c2ccc(Cl)cc2)n1)NO from this test.
Marked response: No

Exam item: I'd appreciate the recorded outcome for N#Cc1cn(C2OC(CO)C(O)C2O)c2ncnc(N)c12 (centres undefined) from this test.
Marked response: Yes

Continuing:
Exam item: I'd appreciate the recorded outcome for COc1ccc2c(c1)[nH]c(=O)c1c3cc(C)c(C)cc3cn21 from this test.
Marked response: Yes

Exam item: I'd appreciate the recorded outcome for COc1ccc(-c2nn3ncccc3c2-c2ccnc(Nc3ccc(Cl)c(C(F)(F)F)c3)n2)cc1 from this test.
Marked response: No

Exam item: I'd appreciate the recorded outcome for Cc1ccc(-[n+]2c3cc(N)c(C)cc3nc3cc(C)c(Nc4ccccc4)cc32)cc1 from this test.
Marked response: Yes

Exam item: I'd appreciate the recorded outcome for CCN(CC)CCOc1nc2ccc(OC)cc2c2c1-c1ccc(OC)cc1C2=O from this test.
Marked response: No

Exam item: I'd appreciate the recorded outcome for C=C1C(=O)O[C@H]2[C@H]1CC/C(Cn1cc(CNC(=O)Cc3cn(C(=O)c4ccc(Cl)cc4)c4ccc(OC)cc34)nn1)=C\CC[C@@]1(C)O[C@@H]21 from this test.
Marked response: No

* * *

What log10(TGI) was measured for each of the following?
# Tested on: HS 578T breast
# testName: NCI tumour cell line growth inhibition, 48 h
Values are log10 of TGI in µM.

In plain terms, O=C(CCCCCCSc1nc(-c2ccccc2)cc(-c2ccc(Cl)cc2)n1)NO has a documented log10(TGI) of 1.30

In plain terms, CC(C)(C)OC(=O)n1cc(C2CNC(=O)C23CCC(=O)N3Cc2ccccc2)c2ccccc21 (stereo not given) has a documented log10(TGI) of 1.94

Go through the list and state log10(TGI) for each entry.
1. COc1ccc2nc(N/N=C(\C)c3ccccn3)cc(C)c2c1
2. O=C(NNc1nc(Cl)nc(N2CCN(C(c3ccccc3)c3ccccc3)CC2)n1)c1ccccc1
3. COc1cccc(N2C(=O)C3c4[nH]c5ccccc5c4C4c5ccccc5CCC4C3C2=O)c1 (stereo not given)

Marked response:
0.97
0.68
0.85
